# Read-out: CYP2C8 (gene 1558)
# PROTOCOL TEXT: LTEA_HepaRG_CYP2C8: Life Technologies and Expression Analysis (LTEA) Assay for CYP2C8 using HepaRG (AID 2283483)
# EXPERIMENTAL SETUP: mRNA level, 48 h; actives raise or lower the signal
Active and inactive are the calls of the source. How the source made its calls: active means hit-call score of the fitted dose curve at least 0.9, where 1 is the maximum; inactive means score below 0.9.
Classes used: active, inactive

# COMPOUND, GROUP
rows = [
    ("CCCCC(O)(Cn1cncn1)c1ccc(Cl)cc1Cl (stereo unspecified)", "active"),
    ("CNC(=O)Oc1cccc2ccccc12", "inactive"),
    ("CCCN(CC)CC1COC2(CCC(C(C)(C)C)CC2)O1 (stereo unspecified)", "inactive"),
    ("CCC(C)n1c(=O)[nH]c(C)c(Br)c1=O (stereo unspecified)", "active"),
    ("O=P(O)(O)CCCl", "inactive"),
    ("Cc1nc(N(C)C)nc(OC(=O)N(C)C)c1C", "active"),
]
